Experiment: soluble on expression in E. coli; label from the status in PepcDB or PDB records

{"SEQUENCE_RECORD": "MLSNQQIRNFSRGVGHLRRRAAKNNVIKVRPEELRPFFNQYSVLPNGIQNDADAKLFSKELQPGERKLLFDALRKITADQYNDHKKVVEVTIDHEDLVKVWYINFIPMFVYGCLDEAFLIIGGESINK", "soluble on expression in E. coli": "not soluble"}
{"SEQUENCE_RECORD": "MKEKKLNLKKHLNTVVTLNSDYLNLLDLMQITNANFPIGTFSHSFGVETYIRKDIVFDGESLIKALLLYMNEQLLHGDLLAIYQIFKLLPKQKINAIWEIDQMINFQGLARETREGQRRIGQQMVKIYNELFNCELLVEYAERIKNKKSYGNPAVAFALLAMHLKIDLKTALYTHLYSTVAALTQNCVRAIPLGQVKGQKIIYQLKHVYFDDIVNKVFTLDFKTDFCKNIPGLEIAQMEHEDTPVRLFMSLEHHHHHH", "soluble on expression in E. coli": "not soluble"}
{"SEQUENCE_RECORD": "MRKIIKGREPDAWLKYRCTPGAVYQRKPALADSLLLEQGYVCAYCEKRIDVQDLRVEHIKPRSQYPAQQLSYSNMVACCSGQSQGSAHCDCSKKDEEITLNLFTDALFLSISYKHDGTISSANKSWNDDINITLNLNCLSLKENRKLALEGLLEIIKKEDYSQGVLKRLKARYEAKDKGHKFAEYRGIILYYIDKKLSP", "soluble on expression in E. coli": "not soluble"}

###

Test: soluble on expression in E. coli; label from the status in PepcDB or PDB records
READOUT: soluble on expression in E. coli

Solved cases below.
{"SEQUENCE_RECORD": "MPLSGEYAPSPLDWSREQADTYMKSGGTEGTQLQGKPVILLTTVGAKTGKLRKTPLMRVEHDGQYAIVASLGGAPKNPVWYHNVVKNPRVELQDGTVTGDYDAREVFGDEKAIWWQRAVAVWPDYASYQTKTDRQIPVFVLTPVRAGG", "soluble on expression in E. coli": "soluble"}
{"SEQUENCE_RECORD": "MNELTKQMQQIMHPRAVLVAYECETTGYSTPRSYLELRPVNEKGRMGAGIPVTYEFMNSLVESYTESMSGIPHGRIPGNMLLCDSRKGRERYIWYNPPQKRKMYFQDGLHITDGTFNVPGVIYVVERECMDIHAFKGAIPEERTELYLAPFFNVAGANVCLGSSSPKKPQDMDFLEFQEYWEKRFWMSEFSHLGGNRNPTRSNLVSVTEHARNNPFDYSELQQSGKKLKDILA", "soluble on expression in E. coli": "not soluble"}
{"SEQUENCE_RECORD": "MSLEALKEVAGEAEGEKSAVITHRNADPDAVGAALVVREVLRALRMNPCLYSPEGISRQSKRLLEAVGEEFGPLCSPDENPLIAVVVDAANLSQIAGAESLFRAARLKVVIDHHERGSIHEEADVALVDPGAGSSSELAVKTAVEAGTPLRPSVATAALGGIVYDTGRFLRASKLSFEAAAHLLSMGADYGKVLEAGRQRGRRDRGDLSLRLAKLKAFSRLKIGRACSELLIAVTHIGSFESDVAKSLVDEAADVAVAVAERTSEFRLSVRVSPLALEKGVTARAIASMLAEKFGGEGGGHDEAGMAHIPYTAAFSAEDMAVKAFNLISGRLGWMCVKTLEKGEGGSHHHHHH", "soluble on expression in E. coli": "soluble"}
{"SEQUENCE_RECORD": "MPVAVMADNAFSFRKLLDQCENQELEAPGGIATPPVYGQLLALYLLQNDMNNARYLWKRIPPAIKSANSELGGIWSVGQRIWQRDFPGIYTTINAHQWSETVQPIMEALRDATRRRAFALVSQAYTSIIADDFAAFVGLPVEEAVKGVLEQGWQADSTTRMVLPRKPAPGALDVSLNRFIPLSEPAPVPPIPNEQQLARLTDYVAFLEN", "soluble on expression in E. coli": "not soluble"}
{"SEQUENCE_RECORD": "TEPPGVIIVGESEFSFHLGINLRDHGIPVMMFNLFENTSEKAHEAGFEVFKGNLLSSNDRIYSDLLRYNKCILMTQSFIFNSLAFNELVPEFGLNNVDMMPVSFNDEQARNNLNGPIRNHILFDENHTPRWFNQFITQHNIVEVPAEDYEKITEN", "soluble on expression in E. coli": "not soluble"}
{"SEQUENCE_RECORD": "MPPAKTKPKFPLCRLPSESVTNVLKIMKLSEIFNLSETSLKARSIVELAMQTIPSHLDLQGFPSKNYKLTVENDGQKVQVQFPHATDALTNFKQKLFRICKTFQIKTASVYFSCPVEAHIIELLGFIKKRKVQFQDFSIKGSVTEQNFKFFMTIGAQRFHLDMSETQPVTEVFALLKIQEVVLQNAAISSQMLNKVLKAWKTTSRLKKFRVIKNWKMDTSVVFQGLHVKQKSRSDTKKEYEIDLDGGGKATCCFKFEKGSSTNGFEFIVIN", "soluble on expression in E. coli": "not soluble"}

Input: Read the entry AVSGIRQSLISRKALTLFKTVLPAMSQTEKEALDAGTVWWEAELFKGKPEWEKLHAIQAPKLSAEERAFLDGPVNEVCAMVSDFQVTHELADLPPEVWQYLKDNKFFAMIIK and write its reported soluble on expression in E. coli.
Output: not soluble

###

Assay: soluble on expression in E. coli; label from the status in PepcDB or PDB records

{"SEQUENCE_RECORD": "MGSDKIHHHHHHANDETIEINYGESISLSAVAGKTTRTGSEATTTNSIRNFHVLAFTQGATYMDCDVRKQGNVWSYGDTKFWPETDVDFYSYSPMNTQNGNVSIKVEGDKKIANYNVPGDEDLLYALNQAEKKNEHEGERPVMVNFRHALSQIVFRIRNTSSNLTVFVDAVKVEGIEKQGTFFWPTLSTTTQWQGTEKDTETDNSWGRWNIVYNKENAKQNNYAAEIIPIMEQGFVGSIDASVRDLTVKTDNGYKGLLLLPQTLNPWITKTGGTDENPEYKITGTARVLVKCKLVDTVSNVQLWPNTNSHEETTWVGVSLVGEPKDINGKTEQVWKQGKRYVYTLIFGEGGGFNPDPDPENPDPEPVLVPITFAVTVDDFVEYPQDLDASVPNSNSGQ", "soluble on expression in E. coli": "not soluble"}
{"SEQUENCE_RECORD": "GMKEDTIEIAGFHAHVYFDAASRDVAARVREGLGARFEVQLGRWFDKPIGPHPKGMYQVAFLPNQFDKVVPWLMLNREGLDILVHPETGDAVSDHAVYSLWLGAALALNIEFLRQLSSTSSN", "soluble on expression in E. coli": "soluble"}
{"SEQUENCE_RECORD": "MTEQLKDFDVAEHLTSEEEIQLYLNEILQEDNIELILSALGDIARARNMSQIARDAGISREGLYKALSGTGNPTFATVMKVMKALNLQFQVQQSRFA", "soluble on expression in E. coli": "not soluble"}
{"SEQUENCE_RECORD": "MMSDQENENEHAKAFLGLAKCEEEVDAIEREVELYRLNKMKPVYEKRDAYIDEIAEFWKIVLSQHVSFANYIRASDFKYIDTIDKIKVEWLALESEMYDTRDFSITFHFHGIEGDFKEQQVTKVFQIKKGKDDQEDGILTSEPVPIEWPQSYDSINPDLIKDKRSPEGKKKYRQGMKTIFGWFRWTGLKPGKEFPHGDSLASLFSEEIYPFCVKYYAEAQRDLEDEEGESGLSADGDSEDDDGSLGEVDLPLSDEEPSSKKRKV", "soluble on expression in E. coli": "soluble"}

###

Assay: soluble on expression in E. coli; label from the status in PepcDB or PDB records
READOUT: soluble on expression in E. coli

{"SEQUENCE_RECORD": "MSLKVKAINLYTYKEPFKSPISTPKVKLTHRESLFTEIVTYSGETYYGECNAFLTNWYDKETILTVVNRLRQWIPQVLHKDMTSFDSWLPYLNQMNDAPAARSMVVMAVYQMYNDLHDFEVQYGATVSGLTNSQIETLLETRPKRIKLKWSTSLIKDLETIRLLNFDCDIAIDANESLTKPSFLQLANVNTSDIIYIEEPFKILEDLNDIDMSIFPRIAIDEKALSIEKIQSIIQQYPIQVVVLKPFRLGGIDRMLNAMKILKEKNIRFVVGGMYEFGLSRYFTAMLAKEGSYPGDITPHGYYFSNDIVETSGILKGGMIYFTPPKVKRSLLNKVEGHHHHHH", "EXPERIMENTAL_VALUE": "not soluble"}
{"SEQUENCE_RECORD": "MGSDKIHHHHHHMSASIPETMKAVVIENGKAVVKQDIPIPELEEGFVLIKTVAVAGNPTDWKHIDFKIGPQGALLGCDAAGQIVKLGPNVDAARFAIGDYIYGVIHGASVRFPSNGAFAEYSAISSETAYKPAREFRLCGKDKLPEGPVKSLEGAVSLPVSLTTAGMILTHSFGLDMTWKPSKAQRDQPILFWGGATAVGQMLIQLAKKLNGFSKIIVVASRKHEKLLKEYGADELFDYHDADVIEQIKKKYNNIPYLVDCVSNTETIQQVYKCAADDLDATVVQLTVLTEKDIKEEDRRQNVSIEGTLLYLIGGNDVPFGTFTLPADPEYKEAAIKFIKFINPKINDGEIHHIPVKVYKNGLDDIPQL", "EXPERIMENTAL_VALUE": "not soluble"}

Where these numbers come from: the DeepSol protein solubility set
